Target: CETP (Homo sapiens)
Sequence (P11597 18-493): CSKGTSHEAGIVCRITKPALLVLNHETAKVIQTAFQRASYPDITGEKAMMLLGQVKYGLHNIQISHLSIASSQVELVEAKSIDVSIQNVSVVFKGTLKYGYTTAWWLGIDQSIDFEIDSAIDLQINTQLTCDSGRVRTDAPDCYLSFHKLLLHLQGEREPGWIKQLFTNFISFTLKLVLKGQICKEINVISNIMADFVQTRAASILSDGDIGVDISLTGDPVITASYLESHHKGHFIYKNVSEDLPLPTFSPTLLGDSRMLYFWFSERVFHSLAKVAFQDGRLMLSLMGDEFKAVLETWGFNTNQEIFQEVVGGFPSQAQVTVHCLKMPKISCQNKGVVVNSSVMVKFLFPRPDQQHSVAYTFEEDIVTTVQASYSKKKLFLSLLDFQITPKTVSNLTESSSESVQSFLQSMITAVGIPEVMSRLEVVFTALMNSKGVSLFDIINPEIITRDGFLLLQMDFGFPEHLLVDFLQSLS
Assay: CETP fluorescence test with enriched CETP
Assay type: biochemical
Design: tissue Sigma P9523; host or cells: human plasma
Conditions: section (b), Example 1 = formula (Ib); enriched CETP from human plasma, 37° C., 4 hours
Description: CETP is obtained in partially purified form from human plasma by differential centrifugation and column chromatography and used for the test. To this end, human plasma is adjusted to a density of 1.21 g per ml using NaBr and centrifuged at 4° C. at 50 000 rpm for 18 h. […] The change in the fluorescence at 485/535 nm is a measure of the CE transfer; the inhibition of the transfer in comparison to the control batch without substance is determined. […]
RECORDED METRIC: IC50 (nM)
Field: numeric (nM). Do not append units.

IC50 lookup needed for `CC(C)c1nc2c(c(C3CCCC3)c1[C@@H](F)c1ccc(C(F)(F)F)cc1)[C@@H](O)CC(C)(C)C2` , thanks. 25

This collection of values is drawn from patent US8124775B2.
